# assay-remarks: Dissociation constant, pKa of the compound
# Type: physicochemical
Examples of compounds with documented pKa follow.

| compound | pKa |
| --- | --- |
| CSc1nc(N)c2ncn([C@@H]3O[C@H](COP(=O)(O)OP(=O)(O)O)[C@@H](O)[C@H]3O)c2n1 | 6.5 |
| CSc1nc(N)c2ncn([C@@H]3O[C@H](COP(=O)(O)OP(=O)(O)CP(=O)(O)O)[C@@H](O)[C@H]3O)c2n1 | 8.4 |

---

# assay-remarks: Metabolic stability in human serum assessed as hydrolysis half life at 40 mM measured for 6 days by HPLC
# Assay type: ADME, cell-free
property-label: half-life at 40000 µM (h)

| compound | endpoint-result |
| --- | --- |
| BP(=O)(OC[C@H]1O[C@@H](n2cnc3c(N)nc(SC)nc32)[C@H](O)[C@@H]1O)OP(=O)(O)CP(=O)(O)O (single isomer, unassigned; diastereomer B) | 71.9 |

---

# system: P2Y purinoceptor 2 (Homo sapiens, UniProt P41231)
# Sequence (P41231 whole entry): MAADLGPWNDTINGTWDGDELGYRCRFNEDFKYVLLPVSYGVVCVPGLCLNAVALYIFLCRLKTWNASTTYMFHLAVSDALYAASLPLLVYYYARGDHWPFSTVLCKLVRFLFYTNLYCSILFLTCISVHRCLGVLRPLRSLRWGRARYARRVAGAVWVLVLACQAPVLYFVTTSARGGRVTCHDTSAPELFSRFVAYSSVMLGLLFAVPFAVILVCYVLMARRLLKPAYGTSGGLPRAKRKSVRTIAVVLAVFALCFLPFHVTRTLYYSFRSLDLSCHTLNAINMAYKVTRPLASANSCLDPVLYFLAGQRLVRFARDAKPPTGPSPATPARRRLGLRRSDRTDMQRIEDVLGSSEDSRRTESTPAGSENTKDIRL
# assay-remarks: Antagonist activity at human P2Y2 receptor expressed in human 1321N1 cells assessed as inhibition of UTP-induced increase in intracellular calcium concentration by dual-excitation spectrofluorimetric analysis
# Assay type: functional, cell-based
The source made the active and inactive calls. The rule behind the calls is not given here.
property-label: Activity

| molecule | system | property-label | endpoint-result |
| --- | --- | --- | --- |
| BP(=O)(OC[C@H]1O[C@@H](n2cnc3c(N)nc(SC)nc32)[C@H](O)[C@@H]1O)OP(=O)(O)CP(=O)(O)O (single isomer, unassigned; diastereomer A) | P2Y purinoceptor 2 (Homo sapiens, UniProt P41231) | Activity | inactive |
| BP(=O)(OC[C@H]1O[C@@H](n2cnc3c(N)ncnc32)[C@H](O)[C@@H]1O)OP(=O)(O)CP(=O)(O)O (single isomer, unassigned; diastereomer B) | P2Y purinoceptor 2 (Homo sapiens, UniProt P41231) | Activity | inactive |
| CSc1nc(N)c2ncn([C@@H]3O[C@H](COP(=O)(O)OP(=O)(O)CP(=O)(O)O)[C@@H](O)[C@H]3O)c2n1 | P2Y purinoceptor 2 (Homo sapiens, UniProt P41231) | Activity | inactive |
| BP(=O)(OC[C@H]1O[C@@H](n2cnc3c(N)ncnc32)[C@H](O)[C@@H]1O)OP(=O)(O)CP(=O)(O)O (stereo not given in full) | P2Y purinoceptor 2 (Homo sapiens, UniProt P41231) | Activity | inactive |
| BP(=O)(OC[C@H]1O[C@@H](n2cnc3c(N)nc(SC)nc32)[C@H](O)[C@@H]1O)OP(=O)(O)CP(=O)(O)O (single isomer, unassigned; diastereomer B) | P2Y purinoceptor 2 (Homo sapiens, UniProt P41231) | Activity | inactive |
